Target: Adrenergic receptor alpha-1 (Homo sapiens, UniProt P35348+P25100+P35368)
Assay: Binding affinity towards Alpha-1 adrenergic receptor in human brain
quantity-name: Ki (µM)
Please reply with the bare figure in µM and do not write the unit itself.

In [3]: df
Out[3]:
                   chem_smiles  quantity_name  test_result
0    c1cc2c(cc1NC1=NCCN1)NCCN2             Ki          5.1
1  Brc1c(NC2=NCCN2)ccc2c1NCCN2             Ki          1.1
2    c1cnc2cc(NC3=NCCN3)ccc2n1             Ki           11

Entry "Cc1c(NC2=NCCN2)ccc2nccnc12" , tested on Adrenergic receptor alpha-1 (Homo sapiens, UniProt P35348+P25100+P35368), has a reported Ki of 1.4

Entry "Cc1c(NC2=NCCN2)ccc2c1NCCN2" , tested on Adrenergic receptor alpha-1 (Homo sapiens, UniProt P35348+P25100+P35368), has a reported Ki of 8.7

###

Each entry below carries its recorded logD.
Assay: Distribution coefficient between octanol and pH 7.2 phosphate buffer
Assay type: physicochemical
Conditions: octanol/phosphate buffer

>>> print(df.to_string())
                   chem_smiles  test_result
0  Brc1c(NC2=NCCN2)ccc2c1NCCN2        -1.74
1   Cc1c(NC2=NCCN2)ccc2c1NCCN2        -2.08

# context switch: different compound, same logD
Entry under test: "Cc1c(NC2=NCCN2)ccc2nccnc12" . Its logD was 0.16

###

Target: Adrenergic receptor alpha-2 (Homo sapiens, UniProt P08913+P18825+P18089)
Test: Binding affinity towards Alpha-2 adrenergic receptor in HT-29 cells
Type: cell-based
quantity-name: Ki (nM)
Please reply with the bare figure in nM and do not write the unit itself.

The examples below pair each entry with its known result.
>>> df
                   chem_smiles  quantity_name  test_result
0   Cc1c(NC2=NCCN2)ccc2c1NCCN2             Ki          6.8
1    c1cc2c(cc1NC1=NCCN1)NCCN2             Ki           46
2  Brc1c(NC2=NCCN2)ccc2c1NCCN2             Ki            6

Entry under test: "Cc1c(NC2=NCCN2)ccc2nccnc12" . Its Ki was 1.3

Entry under test: "c1cnc2cc(NC3=NCCN3)ccc2n1" . Its Ki was 64

Data origin, for the record: ChEMBL document CHEMBL1127237
